Test system: Esophagus cancer ECA109
Experiment: MTT cytotoxicity, esophagus cancer ECA109
Assay type: cell-based
Measurement Conditions: n = 6
Observable: pIC50
Reminder that pIC50 is minus the log10 of a molar concentration.

Inquiry: Fill in pIC50 for record N.N.O=C([O-])C1(C(=O)[O-])CCC1.[Pt+2] [Carboplatin, reference compound]
Reply text: 4.28

Inquiry: Consider the molecule CCN(CC)CCCCC1C(=O)[O][Pt]2([NH]CC3CCC3C[NH]2)[O]C1=O.O=P(O)(O)O (racemic) . State its measured pIC50.
Reply text: 3.99

Inquiry: Provide one value: measured pIC50 of "CCN(CC)CCCCC1C(=O)[O][Pt]2([NH]CC3(CCOCC3)C[NH]2)[O]C1=O.O=P(O)(O)O"
Reply text: 4.28

Inquiry: Return the recorded pIC50 value; entry: "C[N+](C)(C)CCCCC1C(=O)[O][Pt][O]C1=O.Cc1ccc(S(=O)(=O)[O-])cc1.N[C@@H]1CCCC[C@H]1N"
Reply text: 4.60

Inquiry: Specify pIC50 for "CCN(CC)CCCCC1C(=O)[O][Pt][O]C1=O.NC1CCC(N)CC1.O=P(O)(O)O" and stop.
Reply text: 4.18

---

System: Lung cancer H292
Experiment: MTT cytotoxicity, lung cancer H292
Format: cell-based
Measurement Conditions: Lung cancer H292, MTT, n = 6; read-out: cytotoxicity IC50
Kindly apply the following: t if IC50 is less than 6 µM, f in every other case.

Molecule	Category Label
CCN(CC)CCCCC1C(=O)[O][Pt][O]C1=O.NC1CCC(N)CC1.O=P(O)(O)O	f
CCN(CC)CCCCC1C(=O)[O][Pt]2([NH]CC3(CCOCC3)C[NH]2)[O]C1=O.O=P(O)(O)O	t
CCN(CC)CCCCC1C(=O)[O][Pt]2([NH]CC3CCC3C[NH]2)[O]C1=O.O=P(O)(O)O (racemic)	t
CCN(CC)CCCCC1C(=O)[O][Pt]2([NH]C3CCC3[NH]2)[O]C1=O.O=C(O)CCC(=O)O (racemic)	f
CCN(CC)CCCCC1C(=O)[O][Pt]2([NH]C3CCCC3[NH]2)[O]C1=O.O=P(O)(O)O (racemic)	f

# input for lookup
Inquiry: is_below(IC50, 6 µM) for "CCN(CC)CCCCC1C(=O)[O][Pt]2([NH]CCC[NH]2)[O]C1=O.O=P(O)(O)O" ?
Reply text: f

---

Experiment: MTT cytotoxicity, alveolar epithelial cells BEAS-2B
Assay type: cell-based
Measurement Conditions: human, BEAS-2B alveolar epithelial cells; Alveolar epithelial cells BEAS-2B, MTT, n = 6
Observable: pIC50
Please report pIC50 as the negative decimal logarithm of the molar concentration, giving only the number.

Answered examples (3):
Compound	Observable	Observed Value
[NH2][Pt]1([NH2])[O]C(=O)C(CCCCN2CCCC2)C(=O)[O]1	pIC50	5.70
CN(C)C1CC(C2C(=O)[O][Pt]([NH2])([NH2])[O]C2=O)C1 (stereo not shown)	pIC50	5.52
CC1CCCN1CCCCC1C(=O)[O][Pt]([NH2])([NH2])[O]C1=O (stereo not shown)	pIC50	5.52

Moving on to another compound below.
Inquiry: Please look at this compound and report its pIC50: CCN(CC)CC(C)CCC1C(=O)[O][Pt]([NH2])([NH2])[O]C1=O (stereo not shown)
Reply text: 5.30

This collection of values is drawn from patent US9725477B2.
